TARGET DESC: GABA-A receptor; alpha-5/beta-3/gamma-2 (Homo sapiens, UniProt P18507+P28472+P31644)
Sequence (P18507 whole entry): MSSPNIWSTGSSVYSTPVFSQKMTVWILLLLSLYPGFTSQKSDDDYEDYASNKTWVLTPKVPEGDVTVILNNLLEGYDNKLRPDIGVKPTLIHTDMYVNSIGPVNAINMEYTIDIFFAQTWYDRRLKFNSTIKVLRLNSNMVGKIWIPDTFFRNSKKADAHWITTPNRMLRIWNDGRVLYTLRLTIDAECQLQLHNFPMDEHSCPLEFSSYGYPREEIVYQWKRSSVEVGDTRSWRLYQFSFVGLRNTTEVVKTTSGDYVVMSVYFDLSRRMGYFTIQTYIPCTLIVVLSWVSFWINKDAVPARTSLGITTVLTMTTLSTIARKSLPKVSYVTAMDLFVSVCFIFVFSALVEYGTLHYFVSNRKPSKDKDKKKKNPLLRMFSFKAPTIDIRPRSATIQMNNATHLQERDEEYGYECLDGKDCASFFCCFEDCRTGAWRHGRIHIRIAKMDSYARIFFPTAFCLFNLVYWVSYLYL
Sequence (P28472 whole entry): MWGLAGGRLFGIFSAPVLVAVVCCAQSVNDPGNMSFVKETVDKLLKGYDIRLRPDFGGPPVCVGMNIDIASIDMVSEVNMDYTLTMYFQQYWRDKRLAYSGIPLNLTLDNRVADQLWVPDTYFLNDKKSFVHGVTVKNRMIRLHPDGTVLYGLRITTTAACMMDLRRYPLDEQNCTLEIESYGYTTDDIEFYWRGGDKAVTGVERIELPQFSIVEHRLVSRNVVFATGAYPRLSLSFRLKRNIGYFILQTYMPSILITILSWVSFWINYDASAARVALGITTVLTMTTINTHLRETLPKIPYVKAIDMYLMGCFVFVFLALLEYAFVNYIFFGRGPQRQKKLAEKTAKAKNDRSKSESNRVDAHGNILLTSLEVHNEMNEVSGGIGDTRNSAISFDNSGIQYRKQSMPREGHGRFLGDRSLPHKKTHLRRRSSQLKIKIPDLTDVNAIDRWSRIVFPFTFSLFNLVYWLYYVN
Sequence (P31644 whole entry): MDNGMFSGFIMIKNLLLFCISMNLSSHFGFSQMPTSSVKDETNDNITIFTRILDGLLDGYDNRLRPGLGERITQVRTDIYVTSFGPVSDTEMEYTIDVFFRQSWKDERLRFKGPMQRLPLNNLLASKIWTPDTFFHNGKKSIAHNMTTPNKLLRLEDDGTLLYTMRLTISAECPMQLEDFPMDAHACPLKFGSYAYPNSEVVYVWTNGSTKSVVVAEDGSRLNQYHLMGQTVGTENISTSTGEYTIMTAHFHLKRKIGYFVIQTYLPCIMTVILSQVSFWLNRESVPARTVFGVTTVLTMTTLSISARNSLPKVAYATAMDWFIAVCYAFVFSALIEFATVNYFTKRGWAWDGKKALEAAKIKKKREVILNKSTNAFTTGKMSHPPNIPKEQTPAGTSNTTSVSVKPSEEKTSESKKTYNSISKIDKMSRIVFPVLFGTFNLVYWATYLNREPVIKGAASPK
EXPERIMENT SUMMARY: Displacement of [3H]-Ro 15-1788 from Homo sapiens (human) recombinant GABAA alpha5beta3gamma2 receptor expressed in Ltk- cells after 1 hr by liquid scintillation counting
pKi: −log10 of the molar value.
This section presents compounds with their documented pKi values.

- COMPOUND STRUCTURE: "CC(C)(C)OC(=O)c1ncn2c1[C@@H]1CCCN1C(=O)c1cc(Br)ccc1-2"
  pKi: 8.40
- COMPOUND STRUCTURE: "CC(C)(C)OC(=O)c1ncn2c1[C@@H]1CCCN1C(=O)c1cc(C#C[Si](C)(C)C)ccc1-2"
  pKi: 6.99
- COMPOUND STRUCTURE: "O=C(OCC(F)(F)F)c1ncn2c1[C@@H]1CCCN1C(=O)c1ccccc1-2"
  pKi: 8.37
- COMPOUND STRUCTURE: "O=C(OCC(F)(F)F)c1ncn2c1[C@@H]1CCCN1C(=O)c1cc(Br)ccc1-2"
  pKi: 7.24
- COMPOUND STRUCTURE: "C#Cc1ccc2c(c1)C(=O)N1CCC[C@H]1c1c(C(=O)OCC(F)(F)F)ncn1-2"
  pKi: 8.08
- COMPOUND STRUCTURE: "C[Si](C)(C)C#Cc1ccc2c(c1)C(=O)N1CCC[C@H]1c1c(C(=O)OCC(F)(F)F)ncn1-2"
  pKi: 6.86
- COMPOUND STRUCTURE: "CC(C)(C)OC(=O)c1ncn2c1[C@@H]1CCCN1C(=O)c1cc(-c3ccccc3)ccc1-2"
  pKi: 7.89
- COMPOUND STRUCTURE: "C=Cc1ccc2c(c1)C(=O)N1CCC[C@H]1c1c(C(=O)OCC(F)(F)F)ncn1-2"
  pKi: 8.16
- COMPOUND STRUCTURE: "CC(C)(C)OC(=O)c1ncn2c1[C@@H]1CCCN1C(=O)c1cc(-c3cccs3)ccc1-2"
  pKi: 7.92

* * *

TARGET DESC: GABA-A receptor; alpha-6/beta-3/gamma-2 (Homo sapiens, UniProt P18507+P28472+Q16445)
Sequence (Q16445 whole entry, one chain of several): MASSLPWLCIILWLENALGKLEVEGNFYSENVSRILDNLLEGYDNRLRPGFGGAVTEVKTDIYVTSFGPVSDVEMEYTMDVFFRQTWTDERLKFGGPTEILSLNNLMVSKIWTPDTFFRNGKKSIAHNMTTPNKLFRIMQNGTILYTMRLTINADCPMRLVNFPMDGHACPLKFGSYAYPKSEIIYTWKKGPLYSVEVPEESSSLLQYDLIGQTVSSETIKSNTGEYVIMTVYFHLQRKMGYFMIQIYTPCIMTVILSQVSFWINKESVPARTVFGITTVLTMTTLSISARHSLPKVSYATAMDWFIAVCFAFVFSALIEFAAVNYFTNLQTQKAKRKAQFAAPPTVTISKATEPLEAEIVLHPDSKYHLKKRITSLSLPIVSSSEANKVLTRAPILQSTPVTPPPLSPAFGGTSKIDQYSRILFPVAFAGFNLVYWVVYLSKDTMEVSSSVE
EXPERIMENT SUMMARY: Displacement of [3H]-Ro 15-4513 from Homo sapiens (human) recombinant GABAA alpha6beta3gamma2 receptor expressed in Ltk- cells after 1 hr by liquid scintillation counting
pKi: −log10 of the molar value.
ENDPOINT LABEL: pKi

- COMPOUND STRUCTURE: "C=Cc1ccc2c(c1)C(=O)N1CCC[C@H]1c1c(C(=O)OC(C)(C)C)ncn1-2"
  QUALIFIER SYMBOL: "="
  VAL: 7.24
- COMPOUND STRUCTURE: "C=Cc1ccc2c(c1)C(=O)N1CCC[C@H]1c1c(C(=O)OCC(F)(F)F)ncn1-2"
  QUALIFIER SYMBOL: "="
  VAL: 6.53
- COMPOUND STRUCTURE: "O=C(OCC(F)(F)F)c1ncn2c1[C@@H]1CCCN1C(=O)c1cc(-c3ccco3)ccc1-2"
  QUALIFIER SYMBOL: "="
  VAL: 6.60
- COMPOUND STRUCTURE: "O=C(OCC(F)(F)F)c1ncn2c1[C@@H]1CCCN1C(=O)c1ccccc1-2"
  QUALIFIER SYMBOL: "<"
  VAL: 6.48
- COMPOUND STRUCTURE: "C[Si](C)(C)C#Cc1ccc2c(c1)C(=O)N1CCC[C@H]1c1c(C(=O)OCC(F)(F)F)ncn1-2"
  QUALIFIER SYMBOL: "<"
  VAL: 6.48
